Tested on: HMM-mfMSR1 (monkey MSR1 extracellular domain)
Sequence (as listed by the source): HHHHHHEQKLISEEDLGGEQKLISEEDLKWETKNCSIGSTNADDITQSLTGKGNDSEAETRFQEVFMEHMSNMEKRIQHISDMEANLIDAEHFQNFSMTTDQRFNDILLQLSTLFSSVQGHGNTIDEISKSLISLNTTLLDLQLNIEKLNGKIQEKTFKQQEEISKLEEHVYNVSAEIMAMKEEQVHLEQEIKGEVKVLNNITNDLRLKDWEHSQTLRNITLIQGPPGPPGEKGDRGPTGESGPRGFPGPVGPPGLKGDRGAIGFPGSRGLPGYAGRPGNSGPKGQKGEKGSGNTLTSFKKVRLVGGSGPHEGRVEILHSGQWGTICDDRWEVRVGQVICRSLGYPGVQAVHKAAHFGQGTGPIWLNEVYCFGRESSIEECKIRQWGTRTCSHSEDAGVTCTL
Assay: Biacore surface plasmon resonance binding kinetics of anti-MSR1 mAbs, antibody-capture format
Conditions: 25° C.; analyte HMM-mfMSR1; antibody-capture format; NB = no binding observed
READOUT KIND: ka (M⁻¹ s⁻¹)
Kindly answer with a numeric value in M⁻¹ s⁻¹, unit omitted.

Input line: Entry H1H27747P-N297Q (antibody, V domains shown) VH: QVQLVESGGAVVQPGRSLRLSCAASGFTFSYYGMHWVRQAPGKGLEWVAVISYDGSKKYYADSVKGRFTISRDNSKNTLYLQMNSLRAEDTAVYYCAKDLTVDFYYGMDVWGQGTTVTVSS VL: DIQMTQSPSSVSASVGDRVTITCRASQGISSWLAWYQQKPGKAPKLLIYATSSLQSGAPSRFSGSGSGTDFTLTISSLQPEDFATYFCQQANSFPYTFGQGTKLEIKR has what ka?
Output line: 231000
